# Test system: redroot pigweed (Amaranthus retroflexus)
# MEASUREMENT PROTOCOL: Test G Post-Emergence Protocol
# Format: in vivo
# SETUP CONDITIONS: Amaranthus retroflexus, post-emergence, 312 h, 62.5 g ai/ha, evaluated after 13 days, read-out: Pigweed, Redroot damage rating (100=total damage to plant; 0=no damage to plant)
QUANTITY NAME: pest or weed control at 62.5 g/ha (%)
Numeric answer only, unit % assumed.

Look over these answered cases.
CN1C[C@@H](c2ccc(C(F)(F)F)cc2)[C@H](C(=O)Nc2nnc(C(F)(F)F)[nH]2)C1=O (racemic)	30
CN1C[C@@H](c2ccc(C(F)(F)F)cc2)[C@H](C(=O)Nc2c[nH]nc2C(F)(F)F)C1=O (racemic)	10
CN1C[C@@H](c2ccc(C(F)(F)F)cc2)[C@H](C(=O)Nc2ccccc2C#N)C1=O (racemic)	50

## Task I would be grateful if you could share the reported pest or weed control at 62.5 g/ha for CN1C[C@H](c2ccc(C(F)(F)F)cc2)[C@@H](C(=O)Nc2ncc(F)cc2F)C1=O (racemic) .
## Result 0

## Task I would be grateful if you could share the reported pest or weed control at 62.5 g/ha for CN1C[C@@H](c2ccc(C(F)(F)F)cc2)[C@H](C(=O)Nc2cccc(F)c2C#N)C1=O (racemic) .
## Result 70

## Task I would be grateful if you could share the reported pest or weed control at 62.5 g/ha for Cc1ccc(NC(=O)[C@H]2C(=O)N(C)C[C@@H]2c2ccc(C(F)(F)F)cc2)c(C)c1 (racemic) .
## Result 0

## Task I would be grateful if you could share the reported pest or weed control at 62.5 g/ha for CN1C[C@H](c2ccc(C(C)(C)C)cc2)[C@@H](C(=O)Nc2ccccc2F)C1=O (racemic) .
## Result 0

----------
# Tested on: ragweed (common ragweed, Ambrosia elatior)
# MEASUREMENT PROTOCOL: Test A preemergence
# Type: in vivo
# SETUP CONDITIONS: Ambrosia artemisiifolia, pre-emergence, 240 h, 31 g ai/ha, Preemergence; 0 to 100 scale where 0 is no effect and 100 is complete control; read-out: Ragweed plant response rating
QUANTITY NAME: pest or weed control at 31 g/ha
Write the numeric value and follow it with the unit.

O=C(Nc1ccc(F)c(F)c1F)[C@H]1C(=O)N(CC(F)F)C[C@@H]1c1cccc(C(F)(F)F)c1 [Compound 1297]	0%
CN1C[C@H](c2ccc3c(c2)OC(F)(F)O3)[C@@H](C(=O)Nc2ccc(F)nc2F)C1=O [Compound 1350]	50%
O=C1NC[C@H](c2ccc(F)c(Oc3ccccc3)c2)[C@H]1C(=O)Nc1cccc(F)c1F [Compound 1258]	0%

Now for the compound whose pest or weed control at 31 g/ha we want.
## Task I would be grateful if you could share the reported pest or weed control at 31 g/ha for CN1C[C@H](c2ccc(C(F)(F)F)nc2)[C@@](C)(C(=O)Nc2cccc(F)c2F)C1=O [Compound 1109] .
## Result 0%

----------
# Tested on: corn (Zea mays)
# MEASUREMENT PROTOCOL: Test G Post-Emergence Protocol
# Assay type: in vivo
# SETUP CONDITIONS: Zea mays, post-emergence, 312 h, 15.625 g ai/ha, evaluated after 13 days (100=total damage to plant; 0=no damage to plant), read-out: Corn damage rating
QUANTITY NAME: plant injury at 15.625 g/ha (%)
Numeric answer only, unit % assumed.

Look over these answered cases.
CN1C[C@H](c2cccc(C(F)(F)F)c2)[C@@H](C(=O)Nc2cc(C#N)ccn2)C1=O (racemic) [Compound 1735]	0
CN1C[C@H](c2cc(F)cc(F)c2)[C@@H](C(=O)Nc2cnccc2C(F)(F)F)C1=O (racemic) [Compound 1741]	0

## Task I would be grateful if you could share the reported plant injury at 15.625 g/ha for CN1C[C@H](c2ccc(C(F)(F)F)cc2)[C@@H](C(=O)Nc2ccc(F)cc2S(C)(=O)=O)C1=O (racemic) [Compound 1483] .
## Result 20

## Task I would be grateful if you could share the reported plant injury at 15.625 g/ha for CN1C[C@@H](c2ccc(C(F)(F)F)cc2)[C@H](C(=O)Nc2cn(C)nn2)C1=O (racemic) [Compound 1527] .
## Result 10

## Task I would be grateful if you could share the reported plant injury at 15.625 g/ha for CN1C[C@@H](c2ccc(C(F)(F)F)cc2)[C@H](C(=O)Nc2ccc(Cl)cc2F)C1=O (racemic) [Compound 1602] .
## Result 0

## Task I would be grateful if you could share the reported plant injury at 15.625 g/ha for COC(=O)c1cc([C@H]2CN(C)C(=O)[C@@H]2C(=O)Nc2ccccc2F)ccc1F (racemic) [Compound 1682] .
## Result 0

## Task I would be grateful if you could share the reported plant injury at 15.625 g/ha for COc1c(Cl)ccc([C@H]2CN(C)C(=O)[C@@H]2C(=O)Nc2cccc(F)c2F)c1F [Compound 1773] .
## Result 70

## Task I would be grateful if you could share the reported plant injury at 15.625 g/ha for Cc1n[nH]cc1NC(=O)[C@@H]1C(=O)N(C)C[C@H]1c1ccc(C(F)(F)F)cc1 (racemic) [Compound 1634] .
## Result 0

## Task I would be grateful if you could share the reported plant injury at 15.625 g/ha for Cc1c(Cl)ccc([C@@H]2CN(C)C(=O)[C@H]2C(=O)Nc2cccc(F)c2F)c1F (racemic) [Compound 1473] .
## Result 20

## Task I would be grateful if you could share the reported plant injury at 15.625 g/ha for CN1C[C@H](c2ccc(C(F)(F)F)cc2)[C@@H](C(=O)Nc2cnccc2S(C)(=O)=O)C1=O (racemic) [Compound 1746] .
## Result 0

## Task I would be grateful if you could share the reported plant injury at 15.625 g/ha for CN1C[C@H](c2ccc(C(F)(F)F)cc2)[C@@H](C(=O)NC2=NOC(C)(C)C2)C1=O (racemic) [Compound 1427] .
## Result 0

## Task I would be grateful if you could share the reported plant injury at 15.625 g/ha for CN1C[C@@H](c2ccc(C(F)(F)F)cc2)[C@H](C(=O)Nc2cc(O)nc(C(F)(F)F)n2)C1=O (racemic) [Compound 1614] .
## Result 0

## Task I would be grateful if you could share the reported plant injury at 15.625 g/ha for CN1C[C@@H](c2ccc(C(F)(F)F)cc2)[C@H](C(=O)Nc2cccc(F)c2C#N)C1=O (racemic) [Compound 1637] .
## Result 0

## Task I would be grateful if you could share the reported plant injury at 15.625 g/ha for CN1C[C@@H](c2ccc(C(F)(F)F)cc2)[C@H](C(=O)Nc2cc(C(F)(F)F)no2)C1=O (racemic) [Compound 1511] .
## Result 0

## Task I would be grateful if you could share the reported plant injury at 15.625 g/ha for CN1C[C@@H](c2ccc(C(F)(F)F)cc2)[C@H](C(=O)Nc2cccc3c2CCC3)C1=O (racemic) [Compound 1624] .
## Result 0

## Task I would be grateful if you could share the reported plant injury at 15.625 g/ha for CCOc1cc(C2CN(C)C(=O)C2C(=O)Nc2cccc(F)c2F)ccc1Cl (stereo not shown) [Compound 1686] .
## Result 0
